Origin of values: patent US20240252488A1

System: FADD−/− Jurkat cells
Assay: Necroptosis inhibition assay, TNF-α-induced necroptosis (CellTiter-Glo 2.0)
Format: cell-based, human
Conditions: compound 10 μM; TNF-α 15 ng/mL, FADD−/− Jurkat cells
Recorded metric: Necroptosis inhibition assay (Rescue %) 10 μM
State just the number; it will be interpreted in %.

Q: Would you kindly share the measured Necroptosis inhibition assay (Rescue %) 10 μM for COc1ccc(C(=O)N2CCC(C(=O)N3CCC(CN4CCC(n5cc(-c6cnc(N)c(C(=O)O[C@@H](C(=O)Nc7ccc(F)cc7)c7ccccc7)n6)cn5)CC4)CC3)CC2)cc1N1CCC(=O)NC1=O [TDH-515] ?
A: 15.68

Q: Would you kindly share the measured Necroptosis inhibition assay (Rescue %) 10 μM for Nc1ncc(-c2cnn(C3CCN(CCCN4CCN(C(=O)C5CCN(C6=CC(=O)N(C7CCC(=O)NC7=O)C6=O)CC5)CC4)CC3)c2)nc1C(=O)O[C@@H](C(=O)Nc1ccc(F)cc1)c1ccccc1 (stereo partly shown) [TDH-526] ?
A: 22.77

Q: Would you kindly share the measured Necroptosis inhibition assay (Rescue %) 10 μM for Nc1ncc(-c2cnn(C3CCN(CCCN4CCN(CC5CCN(C(=O)CNc6ccc7c(c6)C(=O)N(C6CCC(=O)NC6=O)C7=O)CC5)CC4)CC3)c2)nc1C(=O)O[C@@H](C(=O)Nc1ccc(F)cc1)c1ccccc1 (stereo partly shown) [TDH-441] ?
A: −15.73

Q: Would you kindly share the measured Necroptosis inhibition assay (Rescue %) 10 μM for Nc1ncc(-c2cnn(C3CCN(CCc4cn(C5CCN(C(=O)COc6ccc7c(c6)C(=O)N(C6CCC(=O)NC6=O)C7=O)CC5)nn4)CC3)c2)nc1C(=O)O[C@@H](C(=O)Nc1ccc(F)cc1)c1ccccc1 (stereo partly shown) [TDH-451] ?
A: 17.67

Q: Would you kindly share the measured Necroptosis inhibition assay (Rescue %) 10 μM for Nc1ncc(-c2cnn(C3CCN(CCCN4CCN(C(=O)COc5ccc6c(c5)C(=O)N(C5CCC(=O)NC5=O)C6=O)CC4)CC3)c2)nc1C(=O)N[C@@H](C(=O)Nc1ccc(F)cc1)c1ccccc1 (stereo partly shown) [TDH-492] ?
A: 4.12

Q: Would you kindly share the measured Necroptosis inhibition assay (Rescue %) 10 μM for Nc1ncc(-c2cnn(C3CCN(C(=O)CCC4CCN(C(=O)CNc5ccc6c(c5)C(=O)N(C5CCC(=O)NC5=O)C6=O)CC4)CC3)c2)nc1C(=O)O[C@@H](C(=O)Nc1ccc(F)cc1)c1ccccc1 (stereo partly shown) [TDH-422] ?
A: 40.34

Q: Would you kindly share the measured Necroptosis inhibition assay (Rescue %) 10 μM for Nc1ncc(-c2cnn(C3CCN(CCCN4CC5CN(C(=O)COc6ccc7c(c6)C(=O)N(C6CCC(=O)NC6=O)C7=O)CC5C4)CC3)c2)nc1C(=O)O[C@@H](C(=O)Nc1ccc(F)cc1)c1ccccc1 (stereo partly shown) [TDH-466] ?
A: 26.69

Q: Would you kindly share the measured Necroptosis inhibition assay (Rescue %) 10 μM for Nc1ncc(-c2cnn(C3CCN(C(=O)CCC4CCN(c5cccc6c5C(=O)N(C5CCC(=O)NC5=O)C6=O)CC4)CC3)c2)nc1C(=O)O[C@@H](C(=O)Nc1ccc(F)cc1)c1ccccc1 (stereo partly shown) [TDH-419] ?
A: 18.52

Q: Would you kindly share the measured Necroptosis inhibition assay (Rescue %) 10 μM for Nc1ncc(-c2cnn(C3CCN(C(=O)C4CCN(C(=O)CNc5ccc6nnn(C7CCC(=O)NC7=O)c(=O)c6c5)CC4)CC3)c2)nc1C(=O)O[C@@H](C(=O)Nc1ccc(F)cc1)c1ccccc1 (stereo partly shown) [TDH-408] ?
A: 19.89

Q: Would you kindly share the measured Necroptosis inhibition assay (Rescue %) 10 μM for Nc1ncc(-c2cnn(C3CCN(C4CC5(CCN(CC6CCN(C(=O)c7cccc(C(=O)NC8CCC(=O)NC8=O)c7)CC6)CC5)C4)CC3)c2)nc1C(=O)O[C@@H](C(=O)Nc1ccc(F)cc1)c1ccccc1 (stereo partly shown) [TDH-544] ?
A: 31.42
